# Assay Name: yeast display, Sf9 membrane polyspecificity reagent, FACS + sequencing; frameworks hold sequencing errors

Chain: QVQLVESGVGLVQARRSLRLSCAASGSSKLILWDGIDRRLGKKGSWLPLFVLVVLRNYADSVKGRFTISRDNAKNTVYLQMNILKPDDTEVYYCAATAIGSGGWGDYWGLGTQVTVSS
polyreactivity (PSR sort gate): low polyreactivity
--
Chain: QVQLVESGGGLVQAGGSLRLSCAASGLIVPWYDMGWYRQAPGKERELVAAINWRGGSTYYADSVKGRFTISRDNAKNTVYLQMKSLKPEDTAVYYCAACYLHRDSYIYDYWGQGTQVTVSS
polyreactivity (PSR sort gate): low polyreactivity
--
Chain: QVQLVESGGGFVQAGGSLRLSCAASGITFYSNAMGWYRQAPGKERELGAAISTTGGRTYYADSVKRRFTISRDNAKNTVYLHMNSLKPEDTAVYYCTKAWGRGSLTEPYDYWGQGTQVTVSS
polyreactivity (PSR sort gate): high polyreactivity
--
Chain: QVQLVESGGGLVQAVGSLRLSCAASGFTFSVNAMGWYRQAPGKERELVAAITRSGGRTYYADSVKGRFTISRDNAQNTVYLQMNSLKPEDTAVYYCATPRSRTDGYDYWGQGTQVTVSS
polyreactivity (PSR sort gate): high polyreactivity
--
Chain: QVQLVESGGGLVQAGGSLRLSCAASVSTFDSYVMGWYRQAPGKERELVAAITSGGSTYYADSVKGRFTISRDNAKNTVYLQMNSLKPVDTAVYYCNRDERVGKWGYYWGQGTQVTVSS
polyreactivity (PSR sort gate): low polyreactivity

----------
# Assay Name: yeast display, Sf9 membrane polyspecificity reagent, FACS + sequencing; frameworks hold sequencing errors

Chain: QVQLVESGGGLVQAGGSLRLSCAASGSTFRRNAMGWYRPAPGKERELVAAITSTDSTYYADSVKGRFTISRDNAKNTVYLQMNSLKPEDTAVYYCAKGYWWGGQMGYWGQGTQVTVSS
polyreactivity (PSR sort gate): low polyreactivity
--
Chain: QVQLVESGGGLVQAGGSHRLSCAASGRIFAYNAMGWYRQAPGKERELVAAISSGGNTYYADSVKGRFTISRDNAKNTVYLQMNSLTPEDTAVYYCNAGVGWHRYYSNYDYWGQGTQVTVSS
polyreactivity (PSR sort gate): low polyreactivity

----------
# Assay Name: yeast display, Sf9 membrane polyspecificity reagent, FACS + sequencing; frameworks hold sequencing errors
Measured Attribute: polyreactivity (PSR sort gate)

Chain: QVQLVESGGGLVQAGGSLRLSCAASGSTFVPNAMGWYRQAPGKERELVAAISRSAGSTYYADSVKGRFTISRDNAKNTVYLQMNSLKPEDTAVYYCAAVSLTYIAYDYWGQGTQVTVSS
Measured Attribute: polyreactivity (PSR sort gate)
Value: high polyreactivity

Chain: QVQLVESGGGLVQARGSLRLSCAASGSTFEANSMGWYRQAPGKERELVAVLTWTGGSTYYADSVKGRFTISRDNAKNTVNLHMISLNPEDTAVEYCAADGVLPGRFFWPAHEYDYWGQGTQVTVSS
Measured Attribute: polyreactivity (PSR sort gate)
Value: low polyreactivity

Chain: QVQLVESGGGLVQAGGSLRLSCAASGFIFRQYAMGWYIQAPGKERELVAAITWSGTRTYYADSVKGRFTISRDNAKNTVYLQMNSLKPEDTAVYYCNAGYPKYGYDYWGQGTQVTVSS
Measured Attribute: polyreactivity (PSR sort gate)
Value: high polyreactivity

Chain: QVQLVESGGGLVQAGGSLRLSCAASGNTFAVNAMGWYRQAPGKERELVAAISKRGGRTYYADSVKGRFTISRDNAKNTVYLQMNSLKPEDTAVYYCNTGYIFSSFYSSKYGYWGQGTQVTVSS
Measured Attribute: polyreactivity (PSR sort gate)
Value: high polyreactivity

Chain: QVQLVESCGGLVQAGGSLRLSCAASGLTLGDNAMGLYRQAPGKERELVAAITSGSSTDYADSVKGRFTISRDNAKNTVYLQMNSLKPEDTAVYYCAKRIYRYQYRPENYWGQGTQVTVSS
Measured Attribute: polyreactivity (PSR sort gate)
Value: low polyreactivity

Chain: QVQLVESGGGLVQAGGRLRLSCAASGSTFKIYAMGWYRQAPGKERELVARITGRGGSTYYADSVKGRFTISRDNAKNTVYLQLNSLKPEDSAVYYCAARVYTYYYDLHKRFYWGHGTQVTVSS
Measured Attribute: polyreactivity (PSR sort gate)
Value: high polyreactivity

Chain: QVQLVESCGGLVQAGGSLRLSCAASGSTFVYNSMGWYRQAPGKEREMVDAITWRGSTYYADSVKGRFTISRDNAKNTVYLQMNSLKPEDTAVYYCAARFSNLPEGVTYYYWGQGTQVTVSS
Measured Attribute: polyreactivity (PSR sort gate)
Value: high polyreactivity

Chain: QVQLVDSGGCLVQAGGSLRLSCDASGRISQNAMGWYRQAPGKERELVAAITFSGGSTYYADSVKGRFTISRDNAKNTVYLQMNSLKPEDTAVYYCNVRQYTDGLKYDYWGQGTQVTVSS
Measured Attribute: polyreactivity (PSR sort gate)
Value: low polyreactivity

Chain: QVQLQESGGGLVQAGGSLRQSYAASGYIFPSLAMGWYRQAPGKEREFVAAIGRGSTNNYADSVKGRFTISRDNAKNTAFQHMKSLKPEDTAVYYCAAAASPLTRHLYWGQGTQVSVSS
Measured Attribute: polyreactivity (PSR sort gate)
Value: low polyreactivity

Chain: QVQLVESGGGLVQAGGSLRLSCAASGSTFTPNAMGWYRQAPGKERELVAAINWSDSSTYYADSVKGRFTISRDNAKNTVYLQMNSLKPEETAVYYCAAAAQYGQLQVPVYYWGQGTQVTVSS
Measured Attribute: polyreactivity (PSR sort gate)
Value: low polyreactivity

Chain: QVQLVESGGGLVQAGGRLRLSCAASGRIFLGNVMGWYRQAPGKERELVAAISSGGSTNYADSVKGRFTISRDNAKNTVYLQMNSLKPEDTAVYYCAAYFVRDWKLYYYWGQGTQVTVSS
Measured Attribute: polyreactivity (PSR sort gate)
Value: low polyreactivity

Chain: QVQLVESGGGLVQAGGSLRLSCAASGLTFVYNTMGWYRQAPGKERELVAAINWSGGRTYYADSVKGRFTISRDNAKNTVYLQMNSLKPEDTAVYYCAALYVPNTPTYKYDYWGQGTQVTVSS
Measured Attribute: polyreactivity (PSR sort gate)
Value: low polyreactivity

Chain: QVQLGESGGGLVQAGGSLRLSCAASGSTFVRYAMGWYRQAPGKERELVAGISYSGGRTYYADSVKGRFTISRDNAKNTVYLQMNSLKPEDTAVYYCAAEGTTSWWVKYGYWGQGTQVTVSS
Measured Attribute: polyreactivity (PSR sort gate)
Value: low polyreactivity

Chain: QVQLQESGGGLVQAGGSLRLSCAASGTISPLPAMGWYRQAPGKEREFVAGIDTGAITNYADSVKGRFTISRDNAKNTVYLQMNSLKPEDTAVYYCAVFPAAYDYYERYYTYWGQGTQVTVSS
Measured Attribute: polyreactivity (PSR sort gate)
Value: high polyreactivity

Chain: QVQLVESGGGLVQEGGSLRLSCAASGRTFGYYVMGWYRQAPGKERELVAAISNTDSTYYADSVKGRFTISRDNAKNSVYLQMNSLKPEDTAVYYCDKDGRTVAYTWTRTHYYWGQGTQVTVSS
Measured Attribute: polyreactivity (PSR sort gate)
Value: low polyreactivity

Chain: QVQLVESGGGLVQAGGSLRLSCAASGSIFRYNAMGWDRQAPGKERELVAGITWGGSTYYADSVKGRFTISRDNAKNTVYLQMNSLKPEDTAVYYCAAGRYGDYGYWGQGTQVTVSS
Measured Attribute: polyreactivity (PSR sort gate)
Value: high polyreactivity

Chain: QVQLVESGGGLVQAGGSLRLSCAASGITLLYNAMGWYRQAPGKERELVAGITGRGGSTYYADSVKGRFTISRDNAKNTVSLQMNSLKPEDNAVYYCAATTDYRYVGRIVIRDDHWGQGTQVTVSS
Measured Attribute: polyreactivity (PSR sort gate)
Value: low polyreactivity

Chain: QVQLVESGGGLVQAGGSLRLSCAASGIIFYRYAMGCYRQAPGKEREFVAAISWSGGSTTYADSVKGRFTISRDNAKNTVYLQMNSLKPEDTAVYYCNADRKYWSLWGPAYDYWGQGTQVTVSS
Measured Attribute: polyreactivity (PSR sort gate)
Value: high polyreactivity

Chain: QVQLVESGGGLVQAGGSLRLSCAASGSTFYNYAMGWYRQAPGKERELVAAITSSGGSTYYADSVKGRFTISRDNAKNTVYLQMNSLKPEDTAVYYCAATRRVRRKSFTYRYDYWGQGTQVTVSS
Measured Attribute: polyreactivity (PSR sort gate)
Value: high polyreactivity

Chain: QVQLVESGGGLVQAGGSLRLSCAASGFIFGNYAMGWYRQAPGKERELVATITRRGGRTYYADSVKGRFTISRDNAKNTVYLQMNSLKPEDSAVYYCNARPSRWAREGYWGQGTQVTVSS
Measured Attribute: polyreactivity (PSR sort gate)
Value: high polyreactivity

Chain: QVQLVESGAGLVQAGGSLRLSCAASGSTFPVYAMGWYRQAPGKEREFVAAITYSGARTYYADSVKGRFTISRDNAKNTVYLQMNSLKPEDTAVYYCNAVPYRYLLHGTRCPFSRGYDSWGQGTQVTVSS
Measured Attribute: polyreactivity (PSR sort gate)
Value: high polyreactivity
